# tested.on: Protein kinase C, PKC; classical (Rattus norvegicus) (UniProt P05696+P68403+P63319)
# test.name: Percent stimulation or inhibition of protein kinase C III activity for phosphatidylserine (PS) in the presence of [Ca2+].
# Format: protein assay
# Design: concentration or dose not given beside the values
# conditions.used: values are per cent of control
property.name: residual activity (%)
Answer in %, number only, no unit symbol.

Solved cases below.
{"columns": ["compound", "property.name", "unit.abbrev", "recorded.number"],
 "data": [
  ["C[C@]12CC[C@@H]3c4ccc(O)cc4CC[C@H]3[C@@H]1CC[C@@H]2O [ESTRADIOL]", "residual activity", "%", 77],
  ["CC(C)Oc1ccc(/C(=C(\\C#N)c2ccccc2)c2ccc(O)cc2)cc1", "residual activity", "%", 138],
  ["COc1ccc(/C(=C(\\C#N)c2ccccc2)c2ccc(O)cc2)cc1", "residual activity", "%", 100],
  ["N#CC(=C(c1ccc(O)cc1)c1ccc(O)cc1)c1ccc(O)cc1", "residual activity", "%", 38]
]}

With those in mind, consider the next compound.
Indicate its recorded residual activity; the compound in question is CC/C(=C(/c1ccccc1)c1ccc(OCCN(C)C)cc1)c1ccccc1
36

###

# System: BT-20
# test.name: Cytotoxic effect on ER-negative BT20 cell proliferation
# Type: functional, Homo sapiens
# Design: concentration or dose not given beside the values
Lab note: class by Inhibition, see lower range (below 20%), middle range (20% to below 40%), upper range (40% or more)

Lab note: sort CCN(CC)CCOc1ccc(C(C#N)=C(c2ccc(O)cc2)c2ccc(O)cc2)cc1 into the matching Inhibition band.
upper range

Which category does the recorded Inhibition put CC(C)N(CCOc1ccc(C(C#N)=C(c2ccccc2)c2ccccc2)cc1)C(C)C in?
middle range

Assign a category based on measured Inhibition for CC(C)C(Cl)=C(c1ccc(O)cc1)c1ccc(O)cc1 and give only the class name.
upper range

Categorize the following entry: Oc1ccc(C(=C2CCCC2)c2ccc(O)cc2)cc1
lower range

// bin(item) where item = CC(C)CCOc1ccc(C(=C(C#N)c2ccccc2)c2ccc(OCCC(C)C)cc2)cc1
middle range

###

The reader will find reported residual activity values listed item by item below.
# Species on record: Rattus norvegicus
# test.name: Percent stimulation or inhibition of protein kinase C III activity for protamine sulfate in the presence of EGTA.
# Set-up: concentration or dose not given beside the values
# conditions.used: values are per cent of control
Numbers only; they are read as %.

{"columns": ["compound", "unit.abbrev", "recorded.number"],
 "data": [
  ["C[C@]12CC[C@@H]3c4ccc(O)cc4CC[C@H]3[C@@H]1CC[C@@H]2O [ESTRADIOL]", "%", 99]
]}

Tell me residual activity reported for CC(C)Oc1ccc(/C(=C(\C#N)c2ccccc2)c2ccc(O)cc2)cc1
86

Quickly give me recorded residual activity for N#C/C(=C(/c1ccccc1)c1ccc(O)cc1)c1ccccc1
94

// Input: CC(C)C(Cl)=C(c1ccc(O)cc1)c1ccc(O)cc1 . Output its residual activity only.
85

Report measured residual activity; entry is CCN(CC)CCOc1ccc(/C(=C(\C#N)c2ccccc2)c2ccc(O)cc2)cc1
88

###

The entries below come with measured residual activity values attached.
# tested.on: Protein kinase C, PKC; classical (Rattus norvegicus) (UniProt P05696+P68403+P63319)
# test.name: Percent stimulation or inhibition of protein kinase C III activity for phosphatidylserine (PS) in the presence of [Ca2+].
# Format: protein assay
# Set-up: concentration or dose not given beside the values
# conditions.used: values are per cent of control
Numbers only; they are read as %.

Check out these entries, answers already filled in.
{"columns": ["smiles.notation", "residual activity / %"],
 "data": [
  ["N#CC(=C(c1ccc(O)cc1)c1ccc(O)cc1)c1ccccc1", 94],
  ["CCN(CC)CCOc1ccc(C(=C(C#N)c2ccccc2)c2ccc(OCCN(CC)CC)cc2)cc1", 20],
  ["N#C/C(=C(\\c1ccccc1)c1ccc(O)cc1)c1ccccc1", 107],
  ["Cc1ccc(/C(=C(/C#N)c2ccccc2)c2ccc(O)cc2)cc1", 107],
  ["CC/C(=C(\\c1ccccc1)c1ccc(OCCN(C)C)cc1)c1ccccc1", 49],
  ["CC(C)N(CCOc1ccc(C(=C(C#N)c2ccccc2)c2ccc(OCCN(C(C)C)C(C)C)cc2)cc1)C(C)C", 18],
  ["CCN(CC)CCOc1ccc(/C(=C(/C#N)c2ccccc2)c2ccc(O)cc2)cc1", 20],
  ["Cc1ccc(/C(=C(/C#N)c2ccc(O)cc2)c2ccc(O)cc2)cc1", 113],
  ["CCN(CC)CCOc1ccc(C(C#N)=C(c2ccccc2)c2ccccc2)cc1", 43],
  ["COc1ccc(/C(=C(/C#N)c2ccccc2)c2ccc(O)cc2)cc1", 100]
]}

# assay system Protein kinase C, PKC; classical (Rattus norvegicus) (UniProt P05696+P68403+P63319): give residual activity of CC(C)Oc1ccc(C(=C(C#N)c2ccccc2)c2ccc(OC(C)C)cc2)cc1
100

State residual activity on Protein kinase C, PKC; classical (Rattus norvegicus) (UniProt P05696+P68403+P63319). Entry: CCN(CC)CCOc1ccc(/C(=C(\C#N)c2ccccc2)c2ccc(O)cc2)cc1
10

Retrieve residual activity on Protein kinase C, PKC; classical (Rattus norvegicus) (UniProt P05696+P68403+P63319); query Oc1ccc(C(=C2CCCCC2)c2ccc(O)cc2)cc1
111

Specify the recorded residual activity for NCC(=C(c1ccc(O)cc1)c1ccc(O)cc1)c1ccccc1 , system: Protein kinase C, PKC; classical (Rattus norvegicus) (UniProt P05696+P68403+P63319).
78

Name the value of residual activity reported for CCN(CC)CCOc1ccc(C(C#N)=C(c2ccc(O)cc2)c2ccc(O)cc2)cc1 when tested on Protein kinase C, PKC; classical (Rattus norvegicus) (UniProt P05696+P68403+P63319).
7

Please look at N#C/C(=C(\c1ccccc1)c1ccc(O)cc1)c1ccc(O)cc1 and tell me its recorded residual activity on Protein kinase C, PKC; classical (Rattus norvegicus) (UniProt P05696+P68403+P63319).
97

Give residual activity only, for N#CC(=C(c1ccccc1)c1ccccc1)c1ccccc1 , using Protein kinase C, PKC; classical (Rattus norvegicus) (UniProt P05696+P68403+P63319) data.
126

Please respond with reported residual activity (system Protein kinase C, PKC; classical (Rattus norvegicus) (UniProt P05696+P68403+P63319)) for N#CC(=C(c1ccccc1)c1ccccc1)c1ccc(O)cc1 .
92

For Protein kinase C, PKC; classical (Rattus norvegicus) (UniProt P05696+P68403+P63319), give residual activity of the listed compound: COc1ccc(C(=C(C#N)c2ccccc2)c2ccc(OC)cc2)cc1
98

Provide residual activity, system Protein kinase C, PKC; classical (Rattus norvegicus) (UniProt P05696+P68403+P63319), entry Cc1ccc(C(C#N)=C(c2ccc(O)cc2)c2ccc(O)cc2)cc1
84

Report residual activity on Protein kinase C, PKC; classical (Rattus norvegicus) (UniProt P05696+P68403+P63319) for this entry: CC(C)CCOc1ccc(C(=C(C#N)c2ccccc2)c2ccc(OCCC(C)C)cc2)cc1
118

# assay system Protein kinase C, PKC; classical (Rattus norvegicus) (UniProt P05696+P68403+P63319): give residual activity of CCC(=C(c1ccc(O)cc1)c1ccc(OCCN(C)C)cc1)c1ccccc1
27

###

# tested.on: Protein kinase C, PKC; classical (Rattus norvegicus) (UniProt P05696+P68403+P63319)
# test.name: Percent stimulation or inhibition of protein kinase C III activity for phosphatidylserine (PS) in the presence of [Ca2+].
# Assay type: protein assay
# Parameters: concentration or dose not given beside the values
# conditions.used: values are per cent of control
property.name: residual activity (%)
The reply should contain only the number, in %.

# example entries with known answers
{"columns": ["smiles.notation", "unit.abbrev", "recorded.number"],
 "data": [
  ["CC/C(=C(/c1ccc(O)cc1)c1ccc(OCCN(C)C)cc1)c1ccccc1", "%", 32],
  ["N#C/C(=C(/c1ccccc1)c1ccc(O)cc1)c1ccccc1", "%", 96]
]}

Moving on to the next compound.
Please supply the value of reported residual activity for the item N#C/C(=C(/c1ccccc1)c1ccc(O)cc1)c1ccc(O)cc1
94

###

Measured residual activity accompanies every entry in the list below.
# Organism: Rattus norvegicus
# test.name: Percent stimulation or inhibition of protein kinase C III activity for protamine sulfate in the presence of EGTA.
# Design: concentration or dose not given beside the values
# conditions.used: values are per cent of control
Use % as the unit, but write only the number.

Worked cases, residual activity given:
{"columns": ["smiles.notation", "unit.abbrev", "residual activity"],
 "data": [
  ["Cc1ccc(/C(=C(/C#N)c2ccccc2)c2ccc(O)cc2)cc1", "%", 77],
  ["CCC(=C(c1ccc(O)cc1)c1ccc(OCCN(C)C)cc1)c1ccccc1", "%", 94],
  ["Oc1ccc(C(=C2CCCCC2)c2ccc(O)cc2)cc1", "%", 91]
]}

Identify measured residual activity associated with CC(C)Oc1ccc(C(=C(C#N)c2ccccc2)c2ccc(OC(C)C)cc2)cc1
100

Please give the documented residual activity of COc1ccc(/C(=C(\C#N)c2ccccc2)c2ccc(O)cc2)cc1
100

Report residual activity for N#C/C(=C(/c1ccccc1)c1ccc(O)cc1)c1ccc(O)cc1
86

Return reported residual activity. Input compound: CCN(CC)CCOc1ccc(C(=C(C#N)c2ccccc2)c2ccc(OCCN(CC)CC)cc2)cc1
101

Specify reported residual activity for the compound shown: Cc1ccc(C(C#N)=C(c2ccc(O)cc2)c2ccc(O)cc2)cc1
46

Please supply the value of reported residual activity for the item N#CC(=C(c1ccccc1)c1ccccc1)c1ccc(O)cc1
103

Supply recorded residual activity for Oc1ccc(C(=C2CCCCCC2)c2ccc(O)cc2)cc1 here.
93

Note residual activity for the compound shown: CN(C)c1ccc(C(=C(C#N)c2ccccc2)c2ccc(N(C)C)cc2)cc1
88

Return residual activity (reported value) for this compound: CCN(CC)CCOc1ccc(C(C#N)=C(c2ccc(O)cc2)c2ccc(O)cc2)cc1
105

Give residual activity for the following compound: CC(C)N(CCOc1ccc(C(C#N)=C(c2ccccc2)c2ccccc2)cc1)C(C)C
103

Supply reported residual activity belonging to this compound: CCN(CC)CCOc1ccc(C(C#N)=C(c2ccccc2)c2ccccc2)cc1
96

Specify residual activity for Cc1ccc(/C(=C(/C#N)c2ccc(O)cc2)c2ccc(O)cc2)cc1 and stop.
90
